Tested on: MOLP-8 human multiple myeloma cell line
testProtocol: Caspase-Glo 3/7 apoptosis induction assay in MOLP-8 cells
Assay type: cell-based
setupConditions: Homo sapiens, MOLP-8; caspase-3/7 activation, 2 hours incubation at 37° C.; averaged over all runs on all batches; read-out: MOLP8 AC50
endpoint: AC50 (nM)
Please reply with the bare figure in nM and do not write the unit itself.

Recorded AC50, per entry:
Query: Provide AC50 value for the following compound: COCCCN(CCOC)C[C@H](O)[C@H]1/C(F)=C/C[C@H](C)[C@@H](C)S(=O)(=O)NC(=O)c2ccc3c(c2)N(C[C@@H]2CCN21)C[C@@]1(CCCc2cc(Cl)ccc21)CO3
Result: 123

Query: Provide AC50 value for the following compound: CO[C@H]1COC(C)(C)OC[C@@]12/C(F)=C/C[C@H](C)[C@@H](C)S(=O)(=O)NC(=O)c1ccc3c(c1)N(C[C@@H]1CCCN12)C[C@@]1(CCCc2cc(Cl)ccc21)CO3
Result: 885

Query: Provide AC50 value for the following compound: C[C@@H]1[C@@H](C)C/C=C(\F)C2(COC(C)(C)OC2)N2CCC[C@H]2CN2C[C@@]3(CCCc4cc(Cl)ccc43)COc3ccc(cc32)C(=O)NS1(=O)=O
Result: 759

Further cases:
Query: Provide AC50 value for the following compound: C[C@@H]1[C@@H](C)C/C=C(\F)[C@H]([C@@H](O)CN2CCOCC2)N2CC[C@H]2CN2C[C@@]3(CCCc4cc(Cl)ccc43)COc3ccc(cc32)C(=O)NS1(=O)=O
Result: 87.9

Query: Provide AC50 value for the following compound: C[C@@H]1[C@@H](C)C/C=C(\F)[C@H]([C@@H](O)CN(C)CC2CCOCC2)N2CC[C@H]2CN2C[C@@]3(CCCc4cc(Cl)ccc43)COc3ccc(cc32)C(=O)NS1(=O)=O
Result: 211
